Test target: P70S6K (T412E mutant) (Homo sapiens (Human), UniProt P23443, T412E)
Sequence (P23443 whole entry T412E): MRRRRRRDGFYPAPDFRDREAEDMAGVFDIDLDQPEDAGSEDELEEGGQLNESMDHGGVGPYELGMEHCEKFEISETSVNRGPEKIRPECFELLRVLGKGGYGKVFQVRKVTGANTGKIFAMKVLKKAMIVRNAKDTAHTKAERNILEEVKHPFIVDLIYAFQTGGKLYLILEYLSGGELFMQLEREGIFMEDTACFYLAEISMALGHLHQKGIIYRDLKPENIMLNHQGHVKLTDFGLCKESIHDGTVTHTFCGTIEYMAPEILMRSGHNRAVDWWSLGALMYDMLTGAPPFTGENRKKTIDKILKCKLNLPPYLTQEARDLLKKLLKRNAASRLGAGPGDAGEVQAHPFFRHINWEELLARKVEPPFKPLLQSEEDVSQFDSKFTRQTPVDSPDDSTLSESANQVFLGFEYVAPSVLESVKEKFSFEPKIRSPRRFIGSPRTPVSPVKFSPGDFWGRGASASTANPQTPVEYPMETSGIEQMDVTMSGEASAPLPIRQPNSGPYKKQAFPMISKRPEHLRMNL
Experiment: P70S6K enzyme assay
Assay type: biochemical
Recorded conditions: read-out: IC50 p70S6K
pIC50: −log10 of the molar value.
Label rule, in plain words: pIC50 of 8 and up is Y, under 8 is N.

[
  {
    "Smiles": "Cc1cc(-c2cn(CCNCC3CC3)c(C3CCN(c4ncnc(N)c4C(N)=O)CC3)n2)ccc1F",
    "Category label": "Y"
  },
  {
    "Smiles": "N#Cc1c(N)ncnc1N1CCC(c2nc(-c3ccc4[nH]ncc4c3)cn2CCN2CCC2)CC1",
    "Category label": "N"
  },
  {
    "Smiles": "N#Cc1c(N)ncnc1N1CCC(c2nc(-c3cnoc3)cn2CCN2CCC2)CC1",
    "Category label": "N"
  },
  {
    "Smiles": "NC(=O)c1c(N)ncnc1N1CCC(c2nc(-c3ccc(F)c(C(F)(F)F)c3)cn2CCN2CCC2)CC1",
    "Category label": "Y"
  },
  {
    "Smiles": "Nc1ncnc(N2CCC(c3nc(-c4cccc(F)c4)cn3CCN3CCCC3)CC2)c1Br",
    "Category label": "Y"
  },
  {
    "Smiles": "C=Cc1c(N)ncnc1N1CCC(c2nc(-c3ccc(F)c(C(F)(F)F)c3)cn2CCN2CCCCC2)CC1",
    "Category label": "Y"
  },
  {
    "Smiles": "Cn1cc(-c2ccc(F)c(C(F)(F)F)c2)nc1C1CCN(c2ncnc(N)c2-c2ccc(C#N)cc2)CC1",
    "Category label": "Y"
  },
  {
    "Smiles": "CCN(C)Cc1c(N)ncnc1N1CCC(c2nc(-c3ccc(F)c(C(F)(F)F)c3)cn2CCN(C)C)CC1",
    "Category label": "N"
  },
  {
    "Smiles": "Cn1cc(-c2ccc(F)c(C(F)(F)F)c2)nc1C1CCN(c2ncnc(N)c2-c2ccc(F)nc2)CC1",
    "Category label": "Y"
  },
  {
    "Smiles": "CN(CCn1cc(-c2ccc(F)c(C(F)(F)F)c2)nc1C1CCN(c2ncnc(N)c2C(N)=O)CC1)Cc1ccccc1",
    "Category label": "N"
  },
  {
    "Smiles": "CC(C)Oc1c(N)ncnc1N1CCC(c2nc(-c3ccc(F)c(Cl)c3)cn2CCN2CCCC2)CC1",
    "Category label": "Y"
  },
  {
    "Smiles": "C=Cc1c(N)ncnc1N1CCC(c2nc(-c3ccc(F)c(C(F)(F)F)c3)cn2CCN(C)C)CC1",
    "Category label": "Y"
  },
  {
    "Smiles": "Nc1ncnc(N2CCC(c3nc(-c4ccc(F)c(C(F)(F)F)c4)cn3CCN3CCC3)CC2)c1OCC(F)(F)F",
    "Category label": "Y"
  },
  {
    "Smiles": "N#Cc1c(N)ncnc1N1CCC(c2nc(-c3cc[nH]c(=O)c3)cn2CCN2CCC2)CC1",
    "Category label": "N"
  },
  {
    "Smiles": "CCc1c(N)ncnc1N1CCC(c2nc(-c3ccc(F)c(C(F)(F)F)c3)cn2CCN2CCCCC2)CC1",
    "Category label": "Y"
  },
  {
    "Smiles": "COc1cc(-c2cn(CCN3CCC3)c(C3CCN(c4ncnc(N)c4C(N)=O)CC3)n2)ccc1F",
    "Category label": "Y"
  },
  {
    "Smiles": "FC(F)(F)c1cccc(-c2c[nH]c(C3CCN(c4ccncc4Br)CC3)n2)c1",
    "Category label": "N"
  },
  {
    "Smiles": "COCCNCCn1cc(-c2ccc(F)c(C(F)(F)F)c2)nc1C1CCN(c2ncnc(N)c2C(N)=O)CC1",
    "Category label": "Y"
  }
]

Origin of the recorded values: patent US9145392B2
